# Tested on: T7-scv2-luc-GFP replicon (SEQ ID NO: 2)
# Protocol Notes: microbe, parasite or virus in culture
# Assay type: cell-based, SARS-CoV-2
# Cond: Severe acute respiratory syndrome coronavirus 2, A549
pEC50: −log10 of the molar value.
Test Readout: pEC50

In [3]: df
Out[3]:
                                   compound  value_qualifier  numeric_result
0  CCC(CC)COC(=O)[C@H](C)N[P@](=O)(OC[C@H]1O[C@@](C#N)(c2ccc3c(N)ncnn23)[C@H](O)[C@@H]1O)Oc1ccccc1 [Remdesivir, remdesivir]                =            6.73
1  N#C[C@@]1(c2ccc3c(N)ncnn23)O[C@H](CO)[C@@H](O)[C@H]1O [GS-441524]                =            5.83
2  CN(C)C(=O)COC(=O)Cc1ccc(OC(=O)c2ccc(NC(=N)N)cc2)cc1 [Camostat, camostat]                <            4.38
3  N=C(N)c1ccc2cc(OC(=O)c3ccc(N=C(N)N)cc3)ccc2c1 [Nafamostat, nafamostat]                <            4.38
4  CC(C)C[C@H](NC(=O)c1cc2ccccc2o1)C(=O)N[C@H]1CC[C@@H](C)N(S(=O)(=O)c2ccccn2)CC1=O [Relacatib, relacatib]                <            4.38
